# ASSAY SUMMARY: Solubility ratio for sickle cell haemoglobin in presence and absence of compound
# Assay type: ADME
# Lookup of reported Solubility ratio keyed by entry

MOLECULE | Solubility ratio
C=C(CC)C(=O)c1ccc(OCC(=O)O)c(Cl)c1Cl [ETHACRYNIC ACID] | 1.125
C=C(CC)C(=O)c1ccc(OC2(C(=O)O)CCC2)c(Cl)c1Cl | 1.127
CC/C(=C/c1ccc(OCC(=O)O)c(OC)c1)[N+](=O)[O-] | 1.128
C=C(CC)C(=O)c1ccc(OCCCCC(=O)O)c(Cl)c1Cl | 1.129
C=C(CC)C(=O)c1c(Cl)cc(Cl)cc1OCC(=O)O | 1.08
C=C(CC)C(=O)c1ccc(OCCCC(=O)NCC(=O)O)c(Cl)c1Cl | 1.224
CC/C(=C/c1ccc(C(=O)O)cc1Cl)[N+](=O)[O-] | 1.1
C=C(CC)C(=O)c1ccc(OCCCCCC(=O)O)c(Cl)c1Cl | 1.086
CCC(CN(C)C)C(=O)c1ccc(OCC(=O)O)c(Cl)c1Cl.Cl (configuration not stated) | 1.018
C=C(CCC)C(=O)c1ccc(OC2(C(=O)O)CCC2)c(Cl)c1Cl | 1.085
CCC(SC)C(=O)c1ccc(OCC(=O)O)c(Cl)c1Cl (configuration not stated) | 1.016
CC/C(=C/c1ccc(OCC(=O)O)c(Cl)c1Cl)[N+](=O)[O-] | 1.086
C=CC(=O)c1ccc(OCC(=O)O)c(Cl)c1Cl | 1.06
CCC1=Cc2cc(OCC(=O)O)c(Cl)c(Cl)c2C1=O | 1.09
C/C(=C/c1ccc(OCC(=O)O)cc1)[N+](=O)[O-] | 1.076
C=C(CC)C(=O)c1ccc(OCC(=O)NCC(=O)O)c(Cl)c1Cl | 1.145
C=C(CCC)C(=O)c1ccc(OCCCC(=O)O)c(Cl)c1Cl | 1.115

###

Each entry below lists one item and its recorded Solubility ratio value.
# ASSAY SUMMARY: Solubility ratio of the sickle cell haemoglobin with compound to sickle cell haemoglobin with out compound at 9 mM
# Assay type: ADME
# ASSAY SETUP: 9000 µM
PROPERTY LABEL: Solubility ratio

STRUCTURE SMILES STRING | DATA VALUE
C=C(CC)C(=O)c1ccc(OC(C)(C)C(=O)O)c(Cl)c1Cl | 1.237
C=C(CC)C(=O)c1ccc(OCCCC(=O)O)c(Cl)c1Cl | 1.196
C/C=C(\CC)C(=O)c1ccc(OCC(=O)O)c(Cl)c1Cl | 1.078
C=C(CC)C(=O)c1ccc(OCCCC(=O)NCC(=O)O)c(Cl)c1Cl | 1.309
CCC1=Cc2cc(OCC(=O)O)c(Cl)c(Cl)c2C1=O | 1.12
CC/C(=C/c1ccc(OCC(=O)O)c(OC)c1)[N+](=O)[O-] | 1.207
C=C(CCC)C(=O)c1ccc(OCCCC(=O)O)c(Cl)c1Cl | 1.149
C=C(CC)C(=O)c1ccc(OCCN(CC)CC)c(Cl)c1Cl | 1.113
C=C(CC)C(=O)c1c(Cl)cc(Cl)cc1OCC(=O)O | 1.129

###

# ASSAY SUMMARY: Solubility ratio of the sickle cell haemoglobin with compound to sickle cell haemoglobin with out compound at 3 mM
# Format: ADME
# ASSAY SETUP: 3000 µM

STRUCTURE SMILES STRING | Solubility ratio
C/C(=C/c1ccc(OCC(=O)O)cc1)[N+](=O)[O-] | 1.038
CC/C(=C/c1ccc(C(=O)O)cc1Cl)[N+](=O)[O-] | 1.052
C=C(CC)C(=O)c1c(Cl)cc(Cl)cc1OCC(=O)O | 1.048
C=C(CC)C(=O)c1ccc(OCCCCC(=O)O)c(Cl)c1Cl | 1.081
C=C(CC)C(=O)c1ccc(OCC(=O)NCC(=O)O)c(Cl)c1Cl | 1.109
CC/C(=C/c1ccc(OCC(=O)O)c(Cl)c1Cl)[N+](=O)[O-] | 1.051
CC/C(=C/c1ccc(OCC(=O)O)c(OC)c1)[N+](=O)[O-] | 1.085
C=C(CC)C(=O)c1ccc(OCCN(CC)CC)c(Cl)c1Cl | 1.073
